All values here come from patent US7488712B2.

Overview of recorded IC50 for various compounds
TESTED_ON: human HDAC1 (Homo sapiens, UniProt Q13547)
Construct: FLAG; made in house; host or cells: 293T cells (transient transfection, anti-FLAG immunoprecipitation, FLAG peptide elution)
Sequence (Q13547 whole entry): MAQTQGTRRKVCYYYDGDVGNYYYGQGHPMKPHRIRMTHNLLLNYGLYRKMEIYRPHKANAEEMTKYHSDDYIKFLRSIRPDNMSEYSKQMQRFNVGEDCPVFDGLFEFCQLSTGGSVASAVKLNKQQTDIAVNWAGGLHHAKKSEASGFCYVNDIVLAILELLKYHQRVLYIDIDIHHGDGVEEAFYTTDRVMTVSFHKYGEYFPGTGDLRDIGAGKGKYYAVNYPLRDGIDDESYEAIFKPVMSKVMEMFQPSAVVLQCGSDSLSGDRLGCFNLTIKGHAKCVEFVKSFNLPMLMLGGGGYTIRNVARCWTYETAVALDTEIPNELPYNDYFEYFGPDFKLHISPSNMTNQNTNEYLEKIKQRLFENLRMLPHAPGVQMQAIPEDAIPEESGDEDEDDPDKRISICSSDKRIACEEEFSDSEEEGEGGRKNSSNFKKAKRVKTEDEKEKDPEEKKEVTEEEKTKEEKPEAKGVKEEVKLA
ASSAY_NAME: In vitro HDAC inhibition activity, [3H]-acetylated histone substrate, HDAC1
Format: biochemical
SETUP_CONDITIONS: Table 3; hybrid, without DTT
Experimental: To measure HDAC inhibition activity, an HDAC solution was prepared as described below. 1×10^7 of 293T cells were plated on to a 100-mm dish and, after 24 hours, transfected with vectors (1 μg) expressing human HDAC1 and HDAC4 or mouse HDAC6, using LipofectAmine 2000 reagent (Life Technologies, Inc. Gaithersburg, Md.). […] The vectors were introduced for five hours in OPTI-MEM. […] In vitro HDAC inhibition activity was evaluated as follows: A test compound was dissolved in DMSO and adjusted to 10 mM. […]
*1 amine or outer side, *2 acyl side, *3 side chain or, on linkers, in order; H or OH if unused. Where a SMILES comes first, the peptide text is derived from it. [ ]: non-standard residue; d: D form. The star is where a group is joined. hNle(7-SH) = O=C([C@H](CCCCCS[*:3])N[*:1])[*:2]; X1 = CN(C)C(=O)c1cc(S*)ccc1[N+](=O)[O-]

COMPOUND | IC50 / nM
CC[C@H](C)[C@@H]1NC(=O)[C@@H](Cc2ccc(OC)cc2)NC(=O)[C@H](CCCCCSSC)NC(=O)[C@H]2CCCN2C1=O | 119
CC[C@H](C)[C@@H]1NC(=O)[C@@H](Cc2ccc(OC)cc2)NC(=O)[C@H](CCCCCSSc2ccc([N+](=O)[O-])c(C(=O)N(C)C)c2)NC(=O)[C@H]2CCCN2C1=O [SCOP 403] (cyclo([hNle(7-SH)](X1)[dY](Me)I[dP])) | 21.5
CC[C@H](C)[C@@H]1NC(=O)[C@@H](Cc2ccc(OC)cc2)NC(=O)[C@H](CCCCCSSc2ccncc2)NC(=O)[C@H]2CCCN2C1=O | 6.76
CC[C@H](C)[C@@H]1NC(=O)[C@@H](Cc2ccc(OC)cc2)NC(=O)[C@H](CCCCCSSCCO)NC(=O)[C@H]2CCCN2C1=O | 217

----------
ASSAY_NAME: in vitro
SETUP_CONDITIONS: human, Cancer-Cell-Selective Cytotoxicity, LD50 for normal cells/LD50 for cancer cells (TIG-3/HeLa); without DTT
OBSERVATION_TYPE: selectivity ratio at 48 h

STRUCTURE_SMILES_STRING | OBSERVATION_TYPE | MEASUREMENT
CC[C@H](C)[C@@H]1NC(=O)[C@@H](Cc2ccc(OC)cc2)NC(=O)[C@H](CCCCCSSC)NC(=O)[C@H]2CCCN2C1=O | selectivity ratio at 48 h | 44.1
CC[C@H](C)[C@@H]1NC(=O)[C@@H](Cc2ccc(OC)cc2)NC(=O)[C@H](CCCCCSSc2ccncc2)NC(=O)[C@H]2CCCN2C1=O | selectivity ratio at 48 h | 11.4

----------
TESTED_ON: human HDAC4 (Homo sapiens)
Construct: FLAG; made in house; host or cells: 293T cells (transient transfection, anti-FLAG immunoprecipitation, FLAG peptide elution)
Sequence (O15379 whole entry partner): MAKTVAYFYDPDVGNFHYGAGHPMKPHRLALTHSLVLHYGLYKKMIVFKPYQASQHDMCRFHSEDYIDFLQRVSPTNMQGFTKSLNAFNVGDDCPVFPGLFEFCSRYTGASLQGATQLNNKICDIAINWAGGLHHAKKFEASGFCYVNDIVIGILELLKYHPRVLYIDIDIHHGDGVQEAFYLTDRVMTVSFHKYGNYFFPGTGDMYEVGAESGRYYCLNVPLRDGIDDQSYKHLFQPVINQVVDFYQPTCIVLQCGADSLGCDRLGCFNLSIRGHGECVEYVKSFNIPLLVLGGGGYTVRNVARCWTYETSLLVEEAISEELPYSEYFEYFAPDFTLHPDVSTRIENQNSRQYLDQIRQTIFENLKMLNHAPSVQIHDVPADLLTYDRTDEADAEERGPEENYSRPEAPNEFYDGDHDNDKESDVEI
Sequence (P56524 whole entry): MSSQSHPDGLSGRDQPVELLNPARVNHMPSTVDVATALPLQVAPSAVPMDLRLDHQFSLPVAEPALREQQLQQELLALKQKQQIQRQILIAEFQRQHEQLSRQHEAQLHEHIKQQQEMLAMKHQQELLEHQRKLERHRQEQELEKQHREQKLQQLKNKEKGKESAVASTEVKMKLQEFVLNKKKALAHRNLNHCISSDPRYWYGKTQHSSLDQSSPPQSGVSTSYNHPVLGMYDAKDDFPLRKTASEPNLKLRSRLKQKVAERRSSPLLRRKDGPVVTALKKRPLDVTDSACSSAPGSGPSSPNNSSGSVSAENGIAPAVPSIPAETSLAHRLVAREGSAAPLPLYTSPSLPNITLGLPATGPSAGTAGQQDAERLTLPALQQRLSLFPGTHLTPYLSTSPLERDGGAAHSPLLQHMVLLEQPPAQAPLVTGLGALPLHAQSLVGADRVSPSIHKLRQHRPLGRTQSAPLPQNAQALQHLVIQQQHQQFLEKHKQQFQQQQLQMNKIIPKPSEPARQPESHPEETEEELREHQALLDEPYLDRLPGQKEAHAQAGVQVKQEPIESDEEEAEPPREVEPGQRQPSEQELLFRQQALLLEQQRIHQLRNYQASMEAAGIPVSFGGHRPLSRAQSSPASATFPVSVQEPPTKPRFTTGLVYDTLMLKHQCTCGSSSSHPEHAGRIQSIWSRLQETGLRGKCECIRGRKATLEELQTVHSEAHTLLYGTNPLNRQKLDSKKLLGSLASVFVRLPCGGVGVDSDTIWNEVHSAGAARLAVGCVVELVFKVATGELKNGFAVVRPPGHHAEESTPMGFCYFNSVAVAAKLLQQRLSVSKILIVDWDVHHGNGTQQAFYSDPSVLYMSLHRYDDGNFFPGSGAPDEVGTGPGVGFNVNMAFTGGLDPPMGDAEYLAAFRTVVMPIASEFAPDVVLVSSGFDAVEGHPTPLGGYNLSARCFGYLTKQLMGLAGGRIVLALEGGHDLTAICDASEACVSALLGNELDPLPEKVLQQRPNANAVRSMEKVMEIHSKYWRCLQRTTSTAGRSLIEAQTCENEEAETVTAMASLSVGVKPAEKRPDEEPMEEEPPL
ASSAY_NAME: In vitro HDAC inhibition activity, [3H]-acetylated histone substrate, HDAC4
Format: biochemical
SETUP_CONDITIONS: Table 1; X = H (coexisting with DTT)
Where a SMILES comes first, the peptide text is derived from it. [ ]: non-standard residue; d: D form. Gly((CH2)5SH) = N[C@@H](CCCCCS)C(=O)O; Pip = O=C(O)[C@@H]1CCCCN1; dPip = O=C(O)[C@H]1CCCCN1
OBSERVATION_TYPE: log10 of IC50 (log10 of the value in nM)

COMPOUND | log10 of IC50
CC[C@H](C)[C@@H]1NC(=O)[C@@H](Cc2ccc(OC)cc2)NC(=O)[C@H](CCCCCCCS)NC(=O)[C@H]2CCCN2C1=O | 2.00
CC[C@H](C)[C@@H]1NC(=O)[C@@H](Cc2ccc(OC)cc2)NC(=O)[C@H](CCCCCS)NC(=O)[C@H]2CCCCN2C1=O [SCOP 150] (cyclo([Gly((CH2)5SH)][dY](Me)I[dPip])) | 0.63
CC[C@H](C)[C@@H]1NC(=O)[C@@H](Cc2ccc(OC)cc2)NC(=O)[C@H](CCCCCS)NC(=O)[C@@H]2CCCN2C1=O [SCOP 148] (cyclo([Gly((CH2)5SH)][dY](Me)IP)) | 1.23
CC[C@H](C)[C@@H]1NC(=O)[C@@H](Cc2ccc(OC)cc2)NC(=O)[C@H](CCCCCS)NC(=O)[C@H]2CCCN2C1=O [SCOP 152] (cyclo([Gly((CH2)5SH)][dY](Me)I[dP])) | 0.31
CC[C@H](C)[C@@H]1NC(=O)[C@@H](Cc2ccc(OC)cc2)NC(=O)[C@H](CCCCCCS)NC(=O)[C@H]2CCCN2C1=O | 1.96
CC[C@H](C)[C@@H]1NC(=O)[C@@H](Cc2ccc(OC)cc2)NC(=O)[C@H](CCCCCS)NC(=O)[C@@H]2CCCCN2C1=O [SCOP 149] (cyclo([Gly((CH2)5SH)][dY](Me)I[Pip])) | 0.72
CC[C@H](C)[C@@H]1NC(=O)[C@@H](Cc2ccc(OC)cc2)NC(=O)[C@H](CCCCS)NC(=O)[C@H]2CCCN2C1=O | 3.87

----------
Overview of recorded IC50 for various compounds
TESTED_ON: human HDAC4 (Homo sapiens)
Construct: FLAG; made in house; host or cells: 293T cells (transient transfection, anti-FLAG immunoprecipitation, FLAG peptide elution)
ASSAY_NAME: In vitro HDAC inhibition activity, [3H]-acetylated histone substrate, HDAC4
Assay type: biochemical
SETUP_CONDITIONS: Table 3; hybrid with DTT (/DTT)
*1 amine or outer side, *2 acyl side, *3 side chain or, on linkers, in order; H or OH if unused. Where a SMILES comes first, the peptide text is derived from it. [ ]: non-standard residue; d: D form. The star is where a group is joined. hNle(7-SH) = O=C([C@H](CCCCCS[*:3])N[*:1])[*:2]; X1 = CN(C)C(=O)c1cc(S*)ccc1[N+](=O)[O-]
OBSERVATION_TYPE: IC50

COMPOUND | MEASUREMENT
CC[C@H](C)[C@@H]1NC(=O)[C@@H](Cc2ccc(OC)cc2)NC(=O)[C@H](CCCCCSSCCO)NC(=O)[C@H]2CCCN2C1=O | 13 nM
CC[C@H](C)[C@@H]1NC(=O)[C@@H](Cc2ccc(OC)cc2)NC(=O)[C@H](CCCCCSSc2ccncc2)NC(=O)[C@H]2CCCN2C1=O | 1.12 nM
CC[C@H](C)[C@@H]1NC(=O)[C@@H](Cc2ccc(OC)cc2)NC(=O)[C@H](CCCCCSSc2ccc([N+](=O)[O-])c(C(=O)N(C)C)c2)NC(=O)[C@H]2CCCN2C1=O [SCOP 403] (cyclo([hNle(7-SH)](X1)[dY](Me)I[dP])) | 1.53 nM

----------
TESTED_ON: human HDAC4 (Homo sapiens)
Construct: FLAG; made in house; host or cells: 293T cells (transient transfection, anti-FLAG immunoprecipitation, FLAG peptide elution)
ASSAY_NAME: In vitro HDAC inhibition activity, [3H]-acetylated histone substrate, HDAC4
Type: biochemical
SETUP_CONDITIONS: Table 3; hybrid, without DTT
*1 amine or outer side, *2 acyl side, *3 side chain or, on linkers, in order; H or OH if unused. Where a SMILES comes first, the peptide text is derived from it. [ ]: non-standard residue; d: D form. The star is where a group is joined. hNle(7-SH) = O=C([C@H](CCCCCS[*:3])N[*:1])[*:2]; X1 = CN(C)C(=O)c1cc(S*)ccc1[N+](=O)[O-]
Overview of recorded IC50 for various compounds
OBSERVATION_TYPE: IC50

COMPOUND | OBSERVATION_TYPE | MEASUREMENT
CC[C@H](C)[C@@H]1NC(=O)[C@@H](Cc2ccc(OC)cc2)NC(=O)[C@H](CCCCCSSc2ccc([N+](=O)[O-])c(C(=O)N(C)C)c2)NC(=O)[C@H]2CCCN2C1=O [SCOP 403] (cyclo([hNle(7-SH)](X1)[dY](Me)I[dP])) | IC50 | 18.9 nM
CC[C@H](C)[C@@H]1NC(=O)[C@@H](Cc2ccc(OC)cc2)NC(=O)[C@H](CCCCCSSC)NC(=O)[C@H]2CCCN2C1=O | IC50 | 405 nM
CC[C@H](C)[C@@H]1NC(=O)[C@@H](Cc2ccc(OC)cc2)NC(=O)[C@H](CCCCCSSCCO)NC(=O)[C@H]2CCCN2C1=O | IC50 | 355 nM
CC[C@H](C)[C@@H]1NC(=O)[C@@H](Cc2ccc(OC)cc2)NC(=O)[C@H](CCCCCSSc2ccncc2)NC(=O)[C@H]2CCCN2C1=O | IC50 | 68.3 nM
